Tested on: Mycobacterium kansasii
Assay Remarks: In vitro inhibition of Mycobacterium Kansasi (My 6 509/96) growth after 14 days culture.
Assay type: functional
Condition Summary: 336 h
Sorting guide: entries reporting MIC beneath 30 µM go in the Met pile, the rest go in the Not met pile.

Reference set, count: 3
{"Cpd Smiles": "O=[N+]([O-])c1ccc(CSc2nc3ccccc3s2)c([N+](=O)[O-])c1", "Discrete Label": "Met"}
{"Cpd Smiles": "N#Cc1cccc(CSc2nc3ccccc3s2)c1", "Discrete Label": "Not met"}
{"Cpd Smiles": "O=[N+]([O-])c1ccc(CSc2nc3ccccc3s2)cc1", "Discrete Label": "Not met"}

[Q] Please check: MIC for O=[N+]([O-])c1ccc(CSc2nc3ccccc3o2)c([N+](=O)[O-])c1 , strictly under 30 µM or not?
[A] Met

[Q] Please check: MIC for O=[N+]([O-])c1ccccc1CSc1nc2ccccc2o1 , strictly under 30 µM or not?
[A] Not met

[Q] Please check: MIC for O=[N+]([O-])c1ccc(CSc2nc3ccccc3o2)cc1 , strictly under 30 µM or not?
[A] Not met

====

Tested on: Mycobacterium kansasii
Assay Remarks: In vitro inhibition of Mycobacterium Kansasi (My 235/80) growth after 21 days culture.
Assay type: functional
Condition Summary: 504 h
Measurement Label: MIC

{"Cpd Smiles": "O=[N+]([O-])c1ccc(CSc2nc3ccccc3o2)cc1", "MIC": "> 62 µM"}
{"Cpd Smiles": "N#Cc1ccc(CSc2nc3ccccc3o2)cc1", "MIC": "> 32 µM"}

[Q] What is its MIC for Mycobacterium kansasii? Entry: O=[N+]([O-])c1cccc(CSc2nc3ccccc3o2)c1
[A] > 32 µM

====

Tested on: Mycobacterium kansasii
Assay Remarks: In vitro inhibition of Mycobacterium Kansasi (My 235/80) growth after 14 days culture.
Format: functional
Condition Summary: 336 h
Measurement Label: MIC

// worked examples, MIC included
{"Molecule": "NNC(=O)c1ccncc1 [ISONIAZID]", "MIC": "> 250 µM"}
{"Molecule": "O=[N+]([O-])c1ccc(CSc2nc3ccccc3s2)cc1", "MIC": "> 62 µM"}

[Q] Sample O=[N+]([O-])c1cccc(CSc2nc3ccccc3s2)c1 — what was its MIC?
[A] > 125 µM

====

# reported MIC; entries follow
Tested on: Mycobacterium kansasii
Assay Remarks: In vitro inhibition of Mycobacterium Kansasi (My 6 509/96) growth after 14 days culture.
Format: functional
Condition Summary: 336 h

// worked examples, MIC included
{"Cpd Smiles": "O=[N+]([O-])c1ccccc1CSc1nc2ccccc2s1", "Target": "Mycobacterium kansasii", "Measured Result": "32 µM"}
{"Cpd Smiles": "O=[N+]([O-])c1cc(CSc2nc3ccccc3o2)cc([N+](=O)[O-])c1", "Target": "Mycobacterium kansasii", "Measured Result": "8 µM"}
{"Cpd Smiles": "O=[N+]([O-])c1cccc(CSc2nc3ccccc3s2)c1", "Target": "Mycobacterium kansasii", "Measured Result": "62 µM"}
{"Cpd Smiles": "NC(=S)c1ccc(CSc2nc3ccccc3s2)cc1", "Target": "Mycobacterium kansasii", "Measured Result": "8 µM"}
{"Cpd Smiles": "NC(=S)c1cccc(CSc2nc3ccccc3s2)c1", "Target": "Mycobacterium kansasii", "Measured Result": "16 µM"}

Consider now this further compound.
[Q] Sample O=[N+]([O-])c1cc(CSc2nc3ccccc3s2)cc([N+](=O)[O-])c1 — what was its MIC?
[A] 32 µM
